assay-target: T1, GFP-9S library array, motif 4 ND N98H;D124V (synthetic construct, N98H;D124V)
T1 chain: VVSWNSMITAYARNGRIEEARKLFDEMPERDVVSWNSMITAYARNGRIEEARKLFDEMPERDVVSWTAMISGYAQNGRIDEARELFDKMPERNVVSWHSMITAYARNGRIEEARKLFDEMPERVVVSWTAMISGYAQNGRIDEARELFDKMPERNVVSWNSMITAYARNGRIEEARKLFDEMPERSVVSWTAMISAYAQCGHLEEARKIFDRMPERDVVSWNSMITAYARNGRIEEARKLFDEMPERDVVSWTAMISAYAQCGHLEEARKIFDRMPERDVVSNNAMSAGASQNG
assay-summary: high-throughput RNA pulldown from lysate on Ni-NTA beads; HRP: 50 mM Tris pH 8, 150 mM NaCl, 1 mM beta-mercaptoethanol, 50 ug/ml BSA, 3 ug/ml yeast RNA, 0.5% heparin; ITC and FP: Tris pH 8, 200 mM KCl, 5% glycerol; MST: 50 mM Tris pH 8, 200 mM NaCl, 1 mM DTT, BSA, heparin, 0.05% Tween 20
particulars: tags: N-terminal His-eGFP; label: 5' IRDye 800CW
Quick list: pKd per entry.
# pKd is unitless: minus log10 of the molar concentration; print number only

binder | pKd
AUUAUACGUGA (ssRNA) [IR-rpoA-U] | 7.24

API: the following record is the query input.
Prompt line: Requested field: pKd. Item: AUUAAACGUGA (ssRNA) [IR-rpoA-A]
Response line: 6.94
